PROTOCOL DESCRIPTION: In vivo pharmacokinetic study in rat (i.v. and p.o.)
CONDITION SET: blood, po; rat SD male non-fasted, p.o. 1 mg/kg, N=2
READOUT: bioavailability

Request the reported bioavailability associated with "CO/N=c1\[nH]cnc2c1ncn2[C@@H]1O[C@H]([C@](C)(O)c2ccc(Cl)c(Cl)c2)[C@@H](O)[C@H]1O"
> 100%

----------
PROTOCOL DESCRIPTION: In vivo pharmacokinetic study in rat (i.v. and p.o.)
CONDITION SET: blood, iv; rat SD male non-fasted, cassette, i.v. 0.25 mg/kg, N=3
READOUT: clearance (mL/min/kg)
Provide only the numeric value, understood in mL/min/kg.

Request the reported clearance associated with "CO/N=c1/nc[nH]c2c1ccn2[C@@H]1O[C@H]([C@H](O)c2ccc(Cl)cc2)[C@@H](O)[C@H]1O"
12.3

----------
MEASURED ON: PRMT5/MEP50 complex (Homo sapiens (Human))
Sequence (O14744 whole entry): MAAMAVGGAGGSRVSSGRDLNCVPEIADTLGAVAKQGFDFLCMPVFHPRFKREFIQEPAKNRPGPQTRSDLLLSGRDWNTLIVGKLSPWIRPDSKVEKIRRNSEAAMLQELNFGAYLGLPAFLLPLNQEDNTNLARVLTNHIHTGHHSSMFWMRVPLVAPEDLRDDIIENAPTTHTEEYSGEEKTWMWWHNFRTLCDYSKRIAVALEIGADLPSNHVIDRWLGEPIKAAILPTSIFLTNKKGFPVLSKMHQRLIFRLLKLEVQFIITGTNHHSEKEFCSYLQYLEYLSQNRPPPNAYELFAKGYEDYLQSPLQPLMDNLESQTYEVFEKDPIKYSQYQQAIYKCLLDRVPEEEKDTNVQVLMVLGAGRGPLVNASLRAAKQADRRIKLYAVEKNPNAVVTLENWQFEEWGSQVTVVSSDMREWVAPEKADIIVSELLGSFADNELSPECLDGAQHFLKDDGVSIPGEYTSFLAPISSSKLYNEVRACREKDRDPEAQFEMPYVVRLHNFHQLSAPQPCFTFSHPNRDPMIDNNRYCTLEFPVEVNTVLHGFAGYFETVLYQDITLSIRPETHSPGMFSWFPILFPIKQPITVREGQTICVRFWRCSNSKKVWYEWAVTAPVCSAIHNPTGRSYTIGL
Sequence (Q9BQA1 whole entry partner): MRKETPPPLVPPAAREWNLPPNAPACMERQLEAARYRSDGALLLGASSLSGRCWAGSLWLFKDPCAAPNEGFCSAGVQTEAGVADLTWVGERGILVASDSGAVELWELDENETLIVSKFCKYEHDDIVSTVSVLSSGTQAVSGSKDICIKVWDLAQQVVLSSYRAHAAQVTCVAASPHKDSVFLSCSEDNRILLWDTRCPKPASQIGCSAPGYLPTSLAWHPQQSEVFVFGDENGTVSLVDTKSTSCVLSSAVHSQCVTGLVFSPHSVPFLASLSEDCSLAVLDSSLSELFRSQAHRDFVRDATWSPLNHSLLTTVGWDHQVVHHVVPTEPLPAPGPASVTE
PROTOCOL DESCRIPTION: Biochemical assay: PRMT5/MEP50 methylation of histone H2A with 3H-SAM, filter plate scintillation
CONDITION SET: biochemical potency; read-out: PRTMT5/MEP50 IC50
Where a name gives a salt, the structure may show the parent alone.
Reported pIC50 is given for each of the following compounds.
In textbook form, pIC50 equals minus log to base ten of the concentration in mol/L.

| COMPOUND | READOUT | DATA VALUE |
| --- | --- | --- |
| CO/N=c1\nc[nH]c2c1ccn2[C@@H]1C[C@H](CCc2ccc3ccc(N)nc3c2)[C@@H](O)[C@H]1O | pIC50 | 9.19 |

Request the reported pIC50 associated with "C[C@@](O)(c1ccc(Cl)s1)[C@H]1O[C@@H](n2ccc3c(N)ncnc32)[C@H](O)[C@@H]1O"
9.05

Request the reported pIC50 associated with N/N=c1/nc[nH]c2c1ccn2[C@@H]1C[C@H]([C@H](O)c2ccc(F)c(F)c2)[C@@H](O)[C@H]1O [Example 37-B, hydrochloride]
8.20

Request the reported pIC50 associated with "O/N=c1/nc[nH]c2c1ccn2[C@@H]1C[C@H]([C@H](O)c2ccc(Cl)c(Cl)c2)[C@@H](O)[C@H]1O"
8.64

Request the reported pIC50 associated with "CO/N=c1\nc[nH]c2c1ccn2[C@@H]1C[C@H](CCc2ccc3cc(Cl)c(N)nc3c2)[C@@H](O)[C@H]1O"
9.70

Request the reported pIC50 associated with N/N=c1/nc[nH]c2c1c(F)cn2[C@@H]1C[C@H]([C@H](O)c2ccc(Cl)cc2)[C@@H](O)[C@H]1O [Example 28-B, hydrochloride]
5.94

----------
MEASURED ON: PRMT5/MEP50 complex (Homo sapiens (Human))
PROTOCOL DESCRIPTION: Biochemical assay: PRMT5/MEP50 methylation of histone H2A with 3H-SAM, filter plate scintillation
CONDITION SET: biochemical potency; read-out: PRTMT5/MEP50 IC50
pIC50: −log10 of the molar value.
Give true when the value for pIC50 is at least 8. Give false when it is less.

A selection of reference data follows.
| MOLECULE | ANSWER LABEL |
| --- | --- |
| C[C@@](O)(c1ccc(Cl)c(Cl)c1)[C@H]1O[C@@H](n2cnc3c(N)ncnc32)[C@H](O)[C@@H]1O | true |
| O/N=c1\nc[nH]c2c1ccn2[C@@H]1C[C@H]([C@H](O)c2ccc(F)c(F)c2)[C@@H](O)[C@H]1O | false |
| C[C@@](O)(c1ccc(Cl)c(Cl)c1)[C@H]1O[C@@H](n2cc(F)c3c(N)ncnc32)[C@H](O)[C@@H]1O | true |

I'd appreciate it if you could say whether "CO/N=c1\nc[nH]c2c1ccn2[C@@H]1C[C@H](CCc2ccc3ccc(NCC4CC4)nc3c2)[C@@H](O)[C@H]1O" has pIC50 at least equal to 8.
true

I'd appreciate it if you could say whether "C[C@@](O)(c1ccc(Cl)c(F)c1)[C@H]1O[C@@H](n2cc(F)c3c(N)ncnc32)[C@H](O)[C@@H]1O" has pIC50 at least equal to 8.
true

I'd appreciate it if you could say whether "CO/N=c1\nc[nH]c2c1ccn2[C@@H]1C[C@H]([C@H](O)c2ccc(F)c(F)c2)[C@@H](O)[C@H]1O" has pIC50 at least equal to 8.
false
